Origin of values: patent US20240408138A1

- system: T1, INCENP N-terminal domain (1-58), His- and Avi-tagged, biotinylated (UniProt Q9NQS7 1-58, biotinylated (Avi-tag, co-expressed E. coli biotin ligase BirA))
- T1 construct: range 1-58; Expressed in E. coli BL21(DE3); also called INC-N; INCENP N-terminal domain (AA 1-58); not shown: His-tag and Avi-tag
- T1 sequence (looked up): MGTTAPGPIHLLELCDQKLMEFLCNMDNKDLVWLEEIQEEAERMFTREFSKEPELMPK
- assay explanation: single-point protein ELISA, 200 nM Fab on 50 nM immobilised biotinylated target, protein L-HRP, A450
measured attribute: binding result

* INC-N-01 (Fab, V domains shown, also called INC-N-01 Fab) VH: EVQLVESGGGLVQPGGSLRLSCAASGFNVYYYSIHWVRQAPGKGLEWVASIYPSSGSTYYADSVKGRFTISADTSKNTAYLQMNSLRAEDTAVYYCARQWLYMLWPMWGLDYWGQGTLVTVSS VL: DIQMTQSPSSLSASVGDRVTITCRASQSVSSAVAWYQQKPGKAPKLLIYSASSLYSGVPSRFSGSRSGTDFTLTISSLQPEDFATYYCQQSYYWPITFGQGTKVEIKR | binds
* INC-N-34 (Fab, V domains shown, also called INC-N-34 Fab) VH: EVQLVESGGGLVQPGGSLRLSCAASGFNVSSSSIHWVRQAPGKGLEWVASIYPSSGYTSYADSVKGRFTISADTSKNTAYLQMNSLRAEDTAVYYCARKLAYYWGAQWSYSGYKGMDYWGQGTLVTVSS VL: DIQMTQSPSSLSASVGDRVTITCRASQSVSSAVAWYQQKPGKAPKLLIYSASSLYSGVPSRFSGSRSGTDFTLTISSLQPEDFATYYCQQSYWYPITFGQGTKVEIKR | binds
* INC-N-12 (Fab, V domains shown, also called INC-N-12 Fab) VH: EVQLVESGGGLVQPGGSLRLSCAASGFNFSSSSIHWVRQAPGKGLEWVASIYSYSGSTYYADSVKGRFTISADTSKNTAYLQMNSLRAEDTAVYYCARYHWYYYWYWGGVSPAMDYWGQGTLVTVSS VL: DIQMTQSPSSLSASVGDRVTITCRASQSVSSAVAWYQQKPGKAPKLLIYSASSLYSGVPSRFSGSRSGTDFTLTISSLQPEDFATYYCQQMRYYPITFGQGTKVEIKR | binds
